The reported measurements were obtained from patent US20220119518A1.

The entries below come with measured OD 450 nm values attached.
Molecular target: T1, Antigen CD66c (CEACAM6; Sino Biological, Inc.) (UniProt P40199 35-320)
T1 construct: Bought antigen, coated on the ELISA plate; construct not described; also called CECACAM6 (CD66c) antigen; CD66c antigen
T1 sequence (looked up): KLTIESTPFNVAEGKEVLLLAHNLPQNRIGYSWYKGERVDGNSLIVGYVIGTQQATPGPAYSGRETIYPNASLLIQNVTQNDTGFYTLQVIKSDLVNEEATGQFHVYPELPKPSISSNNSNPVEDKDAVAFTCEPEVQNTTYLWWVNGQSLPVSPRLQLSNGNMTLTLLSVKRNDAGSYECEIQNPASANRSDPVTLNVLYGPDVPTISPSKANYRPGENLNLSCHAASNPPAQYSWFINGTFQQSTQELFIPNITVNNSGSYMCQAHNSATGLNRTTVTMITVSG
Assay: ELISA, CEACAM6 coated 100 ng/well, antibody at 0.51 ng/ml
Answer in OD 450 nm, number only, no unit symbol.

| binder | OD 450 nm (OD 450 nm) |
| --- | --- |
| recombinant humanized anti-CD66c antibody Protein ID 3058 (Vk8 + VH11) (antibody, human IgG1, V domains shown, also called hu 3058; #86) VH: QVQLVQSGAEVKKPGASVKISCKASGYSFTDYTMHWVKQAPGQNLEWIGLINPFGGSTSYAQKFKGRVTMTRDTSTNTAYMELSRLRSDDTAVYYCVRGDPVRHYYALAYWGQGTLVTVSS VL: DIQMTQSPSTLSASVGDRVTITCRASENVYGTLNWYQRKPGKAPKLLIYGATNLADGMPSRFSGSGSGTEYTLTISSLQPDDFATYYCQNVLSAPYTFGGGTKLEIK | 0.38 |
| recombinant humanized anti-CD66c antibody Protein ID 3007 (Vk7 + VH6) (antibody, human IgG1, V domains shown, also called hu 3007; #43) VH: QVQLVQSGAEVKKPGASMKISCKASGYSFTDYTMNWVKQAPGQNLEWIGLINPFHGGTVSNQRFKVKATLTVDVSTNTAYMELSRLRSDDTAVYYCVRGDPVRHYYALAYWGQGTLVTVSS VL: DIQMTQSPSTLSASVGDRVTITCGASENVYGTLNWYQRKPGKAPKLLIYGATNLADGVPSRFSGSGSGTEYTLTISSLQPDDFATYYCQNVLSAPYTFGGGTKLEIK | 0.64 |

# context switch: different binder, same OD 450 nm
Prompt: Query OD 450 nm for anti-CD66c chimeric antibody 8F5 (antibody, human IgG1, V domains shown, also called chimeric 8F5; chi 8F5) VH: EVQLQQSGPELVKPGASMKISCKASGYSFTDYTMNWVKQSHGKNLEWIGLINPFHGGTVSNQRFKVKATLTVDVSSNTAYMELLSLTSDDSAVYYCVRGDPVRHYYALAYWGQGTSVTVSS VL: DIQMTQSPASLSASVGETVTITCGASENVYGTLNWYQRKQGKSPQLLIYGATNLADGMSSRFSGSGSGRQYSLKISSLHPDDVATYYCQNVLSAPYTFGGGTKLEII
Response: 0.41
